B1: 6NMW (parent)
chain: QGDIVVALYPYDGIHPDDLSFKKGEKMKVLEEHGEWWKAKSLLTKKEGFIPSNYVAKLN

Variants of: B1
Assay: folding stability dG (cDNA display proteolysis); higher = more stable
Details: PBS, room temperature
Everything with folding stability dG lower than 3 kcal/mol is no (0); everything else, including exactly 3 kcal/mol, is yes (1).

mutant=W36P label="no (0)"
mutant=S41K label="no (0)"
mutant=L19M label="no (0)"
mutant=K22Y label="no (0)"
mutant=H33F label="yes (1)"
mutant=L19I label="no (0)"
mutant=G13R label="no (0)"
mutant=G13I label="no (0)"
mutant=L58I label="yes (1)"
mutant=F21L label="no (0)"
mutant=K40W label="yes (1)"
mutant=I4P label="no (0)"
mutant=K22N label="no (0)"
mutant=G13Q label="no (0)"
mutant=E35S label="yes (1)"
mutant=F49K label="no (0)"
mutant=G24C label="yes (1)"
mutant=Y11S label="no (0)"
mutant=P10T label="yes (1)"
mutant=K40Q label="yes (1)"

The reported measurements were obtained from the MegaScale stability set (Tsuboyama et al. 2023).
